Entries and their residual activity values follow.
- TARGET_OF_ASSAY: PRKACA or PRKACB or PRKACG (human) (UniProt P22694+P22612+P17612)
- Sequence (P22612 whole entry, looked up, other chains not shown): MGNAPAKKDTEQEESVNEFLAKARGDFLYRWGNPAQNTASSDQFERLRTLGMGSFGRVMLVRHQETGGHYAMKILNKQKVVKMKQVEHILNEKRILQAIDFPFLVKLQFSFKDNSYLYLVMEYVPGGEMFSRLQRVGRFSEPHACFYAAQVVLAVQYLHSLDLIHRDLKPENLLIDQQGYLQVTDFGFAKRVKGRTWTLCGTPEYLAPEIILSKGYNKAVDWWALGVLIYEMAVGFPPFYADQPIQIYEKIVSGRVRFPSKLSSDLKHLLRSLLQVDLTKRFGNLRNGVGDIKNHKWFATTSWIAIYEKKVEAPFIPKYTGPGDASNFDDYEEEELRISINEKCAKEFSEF
- ASSAY_NAME: radiometric filter-binding kinase assay
- STUDY_CONDITIONS: compound 1.0 µM; ATP 20 µM
Output spec: scalar in %, unitless text.

| COMPOUND | RESULT_UNIT | residual activity |
| --- | --- | --- |
| CO[C@H]1CC2CC[C@@H](C)[C@@](O)(O2)C(=O)C(=O)N2CCCC[C@H]2C(=O)OC([C@H](C)C[C@@H]2CC[C@@H](O)[C@H](OC)C2)CC(=O)[C@H](C)/C=C(\C)[C@@H](O)[C@@H](OC)C(=O)[C@H](C)C[C@H](C)/C=C/C=C/C=C/1C (stereo not given in full) | % | 77 |
| O=C1c2ccccc2-c2n[nH]c3cccc1c23 | % | 80 |
| CC(C)(N)c1ccc(-c2nc3ccccc3nc2-c2ccccc2)cc1 | % | 91 |
| COC[C@H]1OC(=O)c2coc3c2[C@@]1(C)C1=C(C3=O)[C@@H]2CCC(=O)[C@@]2(C)C[C@H]1OC(C)=O | % | 86 |

So, O=S(=O)(NCCNC/C=C/c1ccc(Br)cc1)c1cccc2cnccc12 ? Its residual activity was 15

----------
- TARGET_OF_ASSAY: HIPK3 (human) (UniProt Q9H422)
- Sequence (Q9H422 whole entry, looked up): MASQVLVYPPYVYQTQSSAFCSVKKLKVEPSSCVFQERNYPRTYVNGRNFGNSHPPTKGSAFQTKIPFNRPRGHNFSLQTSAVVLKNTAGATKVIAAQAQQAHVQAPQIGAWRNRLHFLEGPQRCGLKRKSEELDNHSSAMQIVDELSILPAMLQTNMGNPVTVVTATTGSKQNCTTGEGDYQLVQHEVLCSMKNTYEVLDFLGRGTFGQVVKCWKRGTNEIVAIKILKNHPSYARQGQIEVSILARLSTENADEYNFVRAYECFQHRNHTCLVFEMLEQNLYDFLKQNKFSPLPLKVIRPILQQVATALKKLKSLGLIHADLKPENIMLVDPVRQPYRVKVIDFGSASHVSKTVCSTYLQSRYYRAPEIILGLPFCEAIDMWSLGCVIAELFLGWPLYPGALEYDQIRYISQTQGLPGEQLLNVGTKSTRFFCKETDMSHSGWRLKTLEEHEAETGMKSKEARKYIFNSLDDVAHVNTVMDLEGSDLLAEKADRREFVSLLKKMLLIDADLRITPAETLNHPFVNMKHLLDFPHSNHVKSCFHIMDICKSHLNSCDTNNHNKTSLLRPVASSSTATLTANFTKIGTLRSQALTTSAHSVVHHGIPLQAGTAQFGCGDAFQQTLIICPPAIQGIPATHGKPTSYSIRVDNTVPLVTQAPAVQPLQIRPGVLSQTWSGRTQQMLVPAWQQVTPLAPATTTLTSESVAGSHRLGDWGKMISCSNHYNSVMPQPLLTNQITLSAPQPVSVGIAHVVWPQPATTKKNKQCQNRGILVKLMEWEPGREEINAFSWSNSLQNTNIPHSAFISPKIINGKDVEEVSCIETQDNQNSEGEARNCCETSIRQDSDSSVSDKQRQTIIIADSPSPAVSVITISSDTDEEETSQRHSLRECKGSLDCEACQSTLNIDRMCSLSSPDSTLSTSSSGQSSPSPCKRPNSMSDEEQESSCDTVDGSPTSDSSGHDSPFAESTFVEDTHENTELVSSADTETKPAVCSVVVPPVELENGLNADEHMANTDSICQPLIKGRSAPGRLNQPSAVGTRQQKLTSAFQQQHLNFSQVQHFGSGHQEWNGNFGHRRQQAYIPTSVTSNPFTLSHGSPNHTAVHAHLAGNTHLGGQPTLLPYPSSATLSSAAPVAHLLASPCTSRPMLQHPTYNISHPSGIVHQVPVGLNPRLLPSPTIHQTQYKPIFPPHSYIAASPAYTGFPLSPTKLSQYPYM
- ASSAY_NAME: radiometric filter-binding kinase assay
- STUDY_CONDITIONS: compound 1.0 µM; ATP 20 µM
EXPERIMENTAL_READOUT: residual activity

| COMPOUND | TARGET_OF_ASSAY | residual activity |
| --- | --- | --- |
| COc1ccc2c(c1)=NC1=C(C)NCCC=21 | HIPK3 (human) (UniProt Q9H422) | 97% |
| CC(C)(N)c1ccc(-c2nc3ccccc3nc2-c2ccccc2)cc1 | HIPK3 (human) (UniProt Q9H422) | 77% |
| COC[C@H]1OC(=O)c2coc3c2[C@@]1(C)C1=C(C3=O)[C@@H]2CCC(=O)[C@@]2(C)C[C@H]1OC(C)=O | HIPK3 (human) (UniProt Q9H422) | 75% |
| O=S(=O)(NCCNC/C=C/c1ccc(Br)cc1)c1cccc2cnccc12 | HIPK3 (human) (UniProt Q9H422) | 106% |
| O=C1c2ccccc2-c2n[nH]c3cccc1c23 | HIPK3 (human) (UniProt Q9H422) | 56% |

Data point: CO[C@H]1CC2CC[C@@H](C)[C@@](O)(O2)C(=O)C(=O)N2CCCC[C@H]2C(=O)OC([C@H](C)C[C@@H]2CC[C@@H](O)[C@H](OC)C2)CC(=O)[C@H](C)/C=C(\C)[C@@H](O)[C@@H](OC)C(=O)[C@H](C)C[C@H](C)/C=C/C=C/C=C/1C (stereo partly specified) ; residual activity = 108%

----------
Catalogue of residual activity values
- TARGET_OF_ASSAY: MAPKAPK2 (human) (UniProt P49137)
- Sequence (P49137 whole entry, looked up): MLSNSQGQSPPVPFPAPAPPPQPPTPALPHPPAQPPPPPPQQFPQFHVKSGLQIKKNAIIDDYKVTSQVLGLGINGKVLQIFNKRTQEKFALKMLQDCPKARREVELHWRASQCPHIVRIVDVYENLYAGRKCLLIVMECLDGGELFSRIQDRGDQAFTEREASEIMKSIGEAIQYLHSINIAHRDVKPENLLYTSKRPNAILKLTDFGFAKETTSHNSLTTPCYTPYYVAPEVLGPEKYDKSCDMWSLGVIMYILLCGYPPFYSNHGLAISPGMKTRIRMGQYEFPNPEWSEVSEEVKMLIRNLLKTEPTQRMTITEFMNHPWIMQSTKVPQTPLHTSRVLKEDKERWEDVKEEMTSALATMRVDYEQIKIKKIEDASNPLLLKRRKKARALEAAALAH
- ASSAY_NAME: radiometric filter-binding kinase assay
- STUDY_CONDITIONS: compound 1.0 µM; ATP 20 µM
Answer format: numeric, % implied, no suffix.

| COMPOUND | RESULT_UNIT | residual activity |
| --- | --- | --- |
| COc1ccc2c(c1)=NC1=C(C)NCCC=21 | % | 89 |

residual activity for MAPKAPK2 (human) (UniProt P49137) with input CO[C@H]1CC2CC[C@@H](C)[C@@](O)(O2)C(=O)C(=O)N2CCCC[C@H]2C(=O)OC([C@H](C)C[C@@H]2CC[C@@H](O)[C@H](OC)C2)CC(=O)[C@H](C)/C=C(\C)[C@@H](O)[C@@H](OC)C(=O)[C@H](C)C[C@H](C)/C=C/C=C/C=C/1C (stereo partly specified) equals 108

Simply: O=C1c2ccccc2-c2n[nH]c3cccc1c23 , MAPKAPK2 (human) (UniProt P49137), residual activity = 102

Reading of residual activity for CC(C)(N)c1ccc(-c2nc3ccccc3nc2-c2ccccc2)cc1 with MAPKAPK2 (human) (UniProt P49137): 84

The observed residual activity for O=S(=O)(NCCNC/C=C/c1ccc(Br)cc1)c1cccc2cnccc12 when tested with MAPKAPK2 (human) (UniProt P49137) stands at 111

# COC[C@H]1OC(=O)c2coc3c2[C@@]1(C)C1=C(C3=O)[C@@H]2CCC(=O)[C@@]2(C)C[C@H]1OC(C)=O with MAPKAPK2 (human) (UniProt P49137): residual activity is 125

----------
- TARGET_OF_ASSAY: PIM3 (human) (UniProt Q86V86)
- ASSAY_NAME: radiometric filter-binding kinase assay
- STUDY_CONDITIONS: compound 1.0 µM; ATP 20 µM
EXPERIMENTAL_READOUT: residual activity (%)
Form entry: value (%) — number only.

Answered cases to consult:
| MOLECULE | READOUT_NUMBER |
| --- | --- |
| CO[C@H]1CC2CC[C@@H](C)[C@@](O)(O2)C(=O)C(=O)N2CCCC[C@H]2C(=O)OC([C@H](C)C[C@@H]2CC[C@@H](O)[C@H](OC)C2)CC(=O)[C@H](C)/C=C(\C)[C@@H](O)[C@@H](OC)C(=O)[C@H](C)C[C@H](C)/C=C/C=C/C=C/1C (stereo not given in full) | 88 |
| O=S(=O)(NCCNC/C=C/c1ccc(Br)cc1)c1cccc2cnccc12 | 91 |
| O=C1c2ccccc2-c2n[nH]c3cccc1c23 | 17 |
| COc1ccc2c(c1)=NC1=C(C)NCCC=21 | 90 |

The record that follows has no residual activity shown yet.
Lab book: residual activity of COC[C@H]1OC(=O)c2coc3c2[C@@]1(C)C1=C(C3=O)[C@@H]2CCC(=O)[C@@]2(C)C[C@H]1OC(C)=O noted as 86

----------
Quick reference: residual activity of the listed items.
- TARGET_OF_ASSAY: STK3 (human) (UniProt Q13188)
- Sequence (Q13188 whole entry, looked up): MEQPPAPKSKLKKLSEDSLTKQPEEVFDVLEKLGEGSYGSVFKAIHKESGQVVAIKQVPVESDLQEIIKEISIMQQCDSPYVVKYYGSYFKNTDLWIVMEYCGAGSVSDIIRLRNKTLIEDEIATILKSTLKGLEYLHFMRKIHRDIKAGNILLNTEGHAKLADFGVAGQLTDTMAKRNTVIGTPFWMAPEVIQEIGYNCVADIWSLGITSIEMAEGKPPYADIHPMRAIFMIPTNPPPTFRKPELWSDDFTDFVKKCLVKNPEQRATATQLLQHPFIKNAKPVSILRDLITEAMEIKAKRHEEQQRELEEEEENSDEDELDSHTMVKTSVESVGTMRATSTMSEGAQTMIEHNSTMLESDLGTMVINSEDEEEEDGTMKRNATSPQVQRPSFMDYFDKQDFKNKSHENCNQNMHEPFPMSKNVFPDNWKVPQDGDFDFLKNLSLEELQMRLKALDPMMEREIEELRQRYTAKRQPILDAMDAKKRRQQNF
- ASSAY_NAME: radiometric filter-binding kinase assay
- STUDY_CONDITIONS: compound 1.0 µM; ATP 20 µM
Write your answer as a measured quantity: the number, then the unit.

Consider the following illustrative entries.
| COMPOUND | residual activity |
| --- | --- |
| O=C1c2ccccc2-c2n[nH]c3cccc1c23 | 31% |
| O=S(=O)(NCCNC/C=C/c1ccc(Br)cc1)c1cccc2cnccc12 | 81% |
| COC[C@H]1OC(=O)c2coc3c2[C@@]1(C)C1=C(C3=O)[C@@H]2CCC(=O)[C@@]2(C)C[C@H]1OC(C)=O | 96% |
| COc1ccc2c(c1)=NC1=C(C)NCCC=21 | 101% |

Turning now to a further record.
Note to self: residual activity recorded for CO[C@H]1CC2CC[C@@H](C)[C@@](O)(O2)C(=O)C(=O)N2CCCC[C@H]2C(=O)OC([C@H](C)C[C@@H]2CC[C@@H](O)[C@H](OC)C2)CC(=O)[C@H](C)/C=C(\C)[C@@H](O)[C@@H](OC)C(=O)[C@H](C)C[C@H](C)/C=C/C=C/C=C/1C (stereo not given in full) was 90%

----------
- System: PRKAA1 or PRKAA2 (rat)
- ASSAY_NAME: radiometric filter-binding kinase assay
- STUDY_CONDITIONS: compound 1.0 µM; accession and sequence are those of the human protein
EXPERIMENTAL_READOUT: residual activity (%)
Field: numeric (%). Do not append units.

| COMPOUND | READOUT_NUMBER |
| --- | --- |
| COC[C@H]1OC(=O)c2coc3c2[C@@]1(C)C1=C(C3=O)[C@@H]2CCC(=O)[C@@]2(C)C[C@H]1OC(C)=O | 88 |

Entry O=S(=O)(NCCNC/C=C/c1ccc(Br)cc1)c1cccc2cnccc12 , residual activity reported as 73

Record CO[C@H]1CC2CC[C@@H](C)[C@@](O)(O2)C(=O)C(=O)N2CCCC[C@H]2C(=O)OC([C@H](C)C[C@@H]2CC[C@@H](O)[C@H](OC)C2)CC(=O)[C@H](C)/C=C(\C)[C@@H](O)[C@@H](OC)C(=O)[C@H](C)C[C@H](C)/C=C/C=C/C=C/1C (some centres undefined) , field residual activity: 87

Reported residual activity for O=C1c2ccccc2-c2n[nH]c3cccc1c23 was 44

----------
- TARGET_OF_ASSAY: MAPK10 (human) (UniProt P53779)
- Sequence (P53779 whole entry, looked up): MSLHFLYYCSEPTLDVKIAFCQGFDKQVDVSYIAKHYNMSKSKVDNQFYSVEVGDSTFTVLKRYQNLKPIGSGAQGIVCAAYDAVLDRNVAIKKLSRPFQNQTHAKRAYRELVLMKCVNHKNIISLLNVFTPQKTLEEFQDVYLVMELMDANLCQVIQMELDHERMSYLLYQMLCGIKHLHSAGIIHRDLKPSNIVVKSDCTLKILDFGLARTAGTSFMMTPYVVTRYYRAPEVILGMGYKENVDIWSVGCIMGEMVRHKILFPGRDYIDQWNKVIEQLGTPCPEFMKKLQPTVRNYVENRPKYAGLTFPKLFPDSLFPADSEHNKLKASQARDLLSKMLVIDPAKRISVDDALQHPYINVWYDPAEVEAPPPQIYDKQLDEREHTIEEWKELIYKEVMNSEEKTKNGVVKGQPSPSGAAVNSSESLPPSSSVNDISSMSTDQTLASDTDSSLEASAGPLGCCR
- ASSAY_NAME: radiometric filter-binding kinase assay
- STUDY_CONDITIONS: compound 1.0 µM; ATP 50 µM
Could you please mark 1 (yes) for values of residual activity below 90% and 0 (no) for values at or above it?

Take a look at these entries with their results.
| MOLECULE | ASSIGNED_CATEGORY |
| --- | --- |
| COC[C@H]1OC(=O)c2coc3c2[C@@]1(C)C1=C(C3=O)[C@@H]2CCC(=O)[C@@]2(C)C[C@H]1OC(C)=O | 0 (no) |
| O=S(=O)(NCCNC/C=C/c1ccc(Br)cc1)c1cccc2cnccc12 | 0 (no) |
| O=C1c2ccccc2-c2n[nH]c3cccc1c23 | 1 (yes) |

Now turn to the next molecule.
Prompt: Here's an entry: CO[C@H]1CC2CC[C@@H](C)[C@@](O)(O2)C(=O)C(=O)N2CCCC[C@H]2C(=O)OC([C@H](C)C[C@@H]2CC[C@@H](O)[C@H](OC)C2)CC(=O)[C@H](C)/C=C(\C)[C@@H](O)[C@@H](OC)C(=O)[C@H](C)C[C@H](C)/C=C/C=C/C=C/1C (stereo partly specified) . Is its residual activity below 90%?
Completion: 1 (yes)
